- EXPERIMENT_NOTES: LogP by HPLC on reversed phase columns (EEC directive 79/831 Annex V.A8)
- Type: physicochemical
- CONDITION_NOTES: LC-UV, acidic range, 0.1% formic acid in water and acetonitrile; read-out: logP (HCOOH) [a]
Provide the reported chromatographic logP of each item.
Answer field: number only, no words.

Query :: Which chromatographic logP value belongs to O=C(NCC(F)(F)c1ncc(-c2ccc(F)cc2)cc1Cl)c1nccnc1C(F)(F)F [Example 19] ?
Result :: 3.51

Query :: Which chromatographic logP value belongs to Cc1ccc(-c2cnc(C(C)(F)CNC(=O)c3cccnc3C(F)(F)F)c(Cl)c2)cc1 (stereo not shown) [Example 22] ?
Result :: 2.15

Query :: Which chromatographic logP value belongs to CC(F)(CNC(=O)c1cccnc1C(F)(F)F)c1ncc(-c2ccccc2)cc1Cl (stereo not shown) [Example 28] ?
Result :: 3.38

Query :: Which chromatographic logP value belongs to CC(=O)Nc1ccc(-c2cnc(C(F)(F)CNC(=O)c3ccccc3C(F)(F)F)c(Cl)c2)cc1 [Example 38] ?
Result :: 2.7
